- Tested on: Candida albicans
- TEST: Infection-preventing effect in experimental infection in mice, Method 1 (Table 7-1)
- Format: in vivo, Crj:CDF1 mice
- CONDITIONS USED: Candida albicans, sc, 168 h, s.c., given 0 and 2 hours after infection; survival 7 days after infection; total dose; read-out: ED50
Counter-ions that a name gives are not always drawn.
Task for the reader: assign each of the following compounds its reported ED50.
// return numeric value only (unit: mg/kg, not printed)

GET /values?readout=ED50&item= C[C@@H](SCCn1cncn1)[C@](O)(Cn1cncn1)c1ccc(F)cc1F (relative stereo) [13(hydrochloride)]
10

GET /values?readout=ED50&item= OC(CSCCn1cncn1)(Cn1cncn1)c1ccc(F)cc1F (stereo not shown) [Compound 2]
19.3

GET /values?readout=ED50&item= Cc1oc(=O)oc1CS[C@H](C)[C@](O)(Cn1cncn1)c1ccc(F)cc1F [Compound 111]
0.71

GET /values?readout=ED50&item= Cc1nc(CS[C@H](C)[C@](O)(Cn2cncn2)c2ccc(F)cc2F)cs1 (relative stereo) [Compound 52]
2

GET /values?readout=ED50&item= C[C@@H](SCc1cncn1C)[C@](O)(Cn1cncn1)c1ccc(F)cc1F (racemic) [Compound 29]
0.71

GET /values?readout=ED50&item= C[C@@H](SCc1ccncc1)[C@](O)(Cn1cncn1)c1ccc(F)cc1F (relative stereo) [Compound 15]
2.5

GET /values?readout=ED50&item= Cc1nc(CS[C@H](C)[C@](O)(Cn2cncn2)c2ccc(F)cc2F)sc1C (relative stereo) [Compound 36]
3.2

GET /values?readout=ED50&item= CC(C)n1ccnc1CS[C@H](C)[C@](O)(Cn1cncn1)c1ccc(F)cc1F (relative stereo) [Compound 47]
0.7

GET /values?readout=ED50&item= CSc1nnc(CS[C@H](C)[C@](O)(Cn2cncn2)c2ccc(F)cc2F)n1C (relative stereo) [Compound 34]
3.2
